Molecular target: HLA-A*0101 (Homo sapiens, UniProt P04439, A114D/A174V/A182V/D101N/D185E/E176A/E190D/L180R/Q94H/R68K/S129P/T187R/V100A/V91M/W191G)
Assay: biochemical
Type: binding
Conditions: allele A*0101; fluorescence polarization competition
Method: A cell-free class I HLA binding assay that allows for in vitro quantification of peptide-HLA binding affinity in a competition format was used. […] Once the mixture has reached steady equilibrium (at 72 hours), displacement of the high binding control peptide is measured through fluorescence polarization. Binding of experimental peptides is expressed as the percent inhibition of the labeled control peptide (experimental fluorescence / control fluorescence, multiplied by 100). […]
READOUT NAME: IC50 (nM), in vitro HLA binding affinity

>>> value("STDPHTNSNN [RIPR_0545]")
"Non-binder"
>>> value("SECDIGLIY [RIPR_0611]")
"Non-binder"
>>> value("NLFEQLSCY [RH5_338]")
"Non-Binder"
>>> value("RTFKKMMDEY [RH5_298]")
"Non-Binder"
>>> value("DSCVPNTNEY [RIPR_0976]")
"Non-binder"

---

Target: HLA-B*4402 (Homo sapiens, UniProt P01889, A223V/A65T/A93T/A95T/D201E/D98Y/E176V/E187L/E204Q/E69K/G107R/H137Y/K202T/L105A/L119I/N104T/N87E/Q56L/Q94N/R106L/R155S/R180D/S101N/S121R/S35A/S48T/T118I/V36M/W191S/Y140D/Y91S)
Experiment: In vitro class I HLA binding assay (fluorescence polarization competition)
Settings: allele B*4402; fluorescence polarization competition; read-out: IC50 (nM), in vitro HLA binding affinity
Where a SMILES comes first, the peptide text is derived from it.
Entries and their measured log10 of IC50 follow.
READOUT NAME: log10 of IC50 (log10 of the value in nM)

>>> value("CC(C)C[C@H](NC(=O)[C@H](CO)NC(=O)[C@H](CS)NC(=O)[C@@H]1CCCN1C(=O)[C@H](Cc1ccccc1)NC(=O)[C@H](CC(N)=O)NC(=O)[C@H](CC(N)=O)NC(=O)[C@H](CCC(=O)O)NC(=O)[C@@H](N)C(C)C)C(=O)N[C@@H](Cc1ccc(O)cc1)C(=O)O [AMA1_437] (H-VENNFPCSLY-OH)")
3.78
>>> value("CC(C)C[C@H](NC(=O)[C@H](CC(N)=O)NC(=O)[C@H](CC(N)=O)NC(=O)[C@H](CCCCN)NC(=O)[C@H](Cc1ccc(O)cc1)NC(=O)[C@H](Cc1ccccc1)NC(=O)[C@H](CCCCN)NC(=O)[C@H](CCC(=O)O)NC(=O)[C@@H](N)CCCCN)C(=O)N[C@@H](Cc1ccc(O)cc1)C(=O)O [RIPR_0378] (H-KEKFYKNNLY-OH)")
5.96
>>> value("CC[C@H](C)[C@H](NC(=O)[C@H](CC(=O)O)NC(=O)[C@H](CCC(N)=O)NC(=O)[C@@H](NC(=O)[C@H](CS)NC(=O)[C@H](CCCNC(=N)N)NC(=O)[C@H](Cc1ccc(O)cc1)NC(=O)[C@H](CC(N)=O)NC(=O)[C@H](CCC(=O)O)NC(=O)[C@@H](N)CCC(=O)O)[C@@H](C)O)C(=O)O [RIPR_0283] (H-EENYRCTQDI-OH)")
5.83
>>> value("CC[C@H](C)[C@H](NC(=O)[C@@H](NC(=O)[C@@H](NC(=O)[C@H](CCC(=O)O)NC(=O)[C@H](CO)NC(=O)[C@H](CC(N)=O)NC(=O)[C@H](CC(N)=O)NC(=O)[C@H](Cc1ccc(O)cc1)NC(=O)[C@H](CCC(=O)O)NC(=O)[C@@H](N)CCCCN)[C@@H](C)CC)[C@@H](C)O)C(=O)O [CYRPA_142] (H-KEYNNSEITI-OH)")
4.04
>>> value("C[C@H](NC(=O)[C@H](CCCNC(=N)N)NC(=O)[C@H](CCCCN)NC(=O)[C@H](CCC(=O)O)NC(=O)[C@H](CCC(=O)O)NC(=O)CN)C(=O)N[C@@H](CO)C(=O)N[C@@H](Cc1c[nH]cn1)C(=O)N[C@H](C(=O)N[C@H](C(=O)O)[C@@H](C)O)[C@@H](C)O [AMA1_604] (H-GEEKRASHTT-OH)")
4.00
>>> value("CC[C@H](C)[C@H](NC(=O)[C@H](CCCNC(=N)N)NC(=O)[C@H](CC(N)=O)NC(=O)[C@H](Cc1ccccc1)NC(=O)[C@@H](NC(=O)[C@H](Cc1c[nH]cn1)NC(=O)[C@H](CCCCN)NC(=O)[C@H](CCSC)NC(=O)[C@H](CCC(=O)O)NC(=O)[C@@H](N)CCCCN)[C@@H](C)CC)C(=O)O [RH5_415] (H-KEMKHIFNRI-OH)")
4.59
